# TARGET DESC: T1, Cathepsin K (UniProt P43235 115-329)
# T1 sequence (looked up): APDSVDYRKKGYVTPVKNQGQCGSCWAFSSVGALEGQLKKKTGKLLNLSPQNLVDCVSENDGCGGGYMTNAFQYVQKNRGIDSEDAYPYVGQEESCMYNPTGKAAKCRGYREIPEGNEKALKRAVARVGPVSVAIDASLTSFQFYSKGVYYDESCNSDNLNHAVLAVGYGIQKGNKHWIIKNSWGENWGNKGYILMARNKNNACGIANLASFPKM
# ASSAY PROTOCOL: fluorescence-based enzyme inhibition assay
Positions of bridges follow the written chain, without caps; N, C: chain ends. No end group written: not given here. alpha,alpha'‑meta‑xylylene = alpha,alpha'-meta-xylylene linker (from a,a'-dibromo-meta-xylene) bridging two cysteines via bis-thioether
QUANTITY MEASURED: Ki (µM)

SCEVVCKMTGLKVPL (linker 2-6 via alpha,alpha'‑meta‑xylylene, 15-mer) [SCEVVCKMTGLKVPL (SEQ ID NO:56)] = 22.7

A = QCEVVCKMTGL (linker 2-6 via alpha,alpha'‑meta‑xylylene) [QCEVVCKMTGL (SEQ ID NO:34)]
B = SCESVCKPWGP (linker 2-6 via alpha,alpha'‑meta‑xylylene, also called compound (IIa); quadruple mutant) [SCESVCKPWGP (SEQ ID NO:50)]
Qu. Between the entries labelled A and B , which has a larger Ki value on record? Write the label of whichever entry you select.
Ans. A
(A: 76.8 µM, B: 17.2 µM)

Data provenance is patent US20150133367A1.
